Source listed as the supplement of paper PMC10567573.

B1: NEK8 (parent)
chain: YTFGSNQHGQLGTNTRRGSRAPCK

variants of: B1; assay: protein stability index of a GFP-peptide fusion (GPS, HEK-293T) (PSI 1-6); higher = more stable; details: c terminus: a fixed tail appended;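 also: lentivirally expressed fusions sorted by FACS into six bins by GFP to DsRed ratio, PSI derived from sequencing read proportions per bin multiplied by bin number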
Some variants, each annotated with its measured protein stability index.
The answer should be a number; do not append a unit.

L11I	3.93
R20G	3.97

Problem: I have this variant here, G12V , and I need its recorded protein stability index.
Solution: 4.11

Problem: # lookup: protein stability index of S19A
Solution: 3.95
